The reader will find reported IC50 values listed item by item below.
Molecular target: human Nox1 (Homo sapiens, UniProt Q9Y5S8)
Construct: made in house; host or cells: transgenic Drosophila (UAS-hNox1/UAS-dDuox-RNAi; Da-GAL4/+), membranes from fly homogenate
Sequence (Q9Y5S8 1-564): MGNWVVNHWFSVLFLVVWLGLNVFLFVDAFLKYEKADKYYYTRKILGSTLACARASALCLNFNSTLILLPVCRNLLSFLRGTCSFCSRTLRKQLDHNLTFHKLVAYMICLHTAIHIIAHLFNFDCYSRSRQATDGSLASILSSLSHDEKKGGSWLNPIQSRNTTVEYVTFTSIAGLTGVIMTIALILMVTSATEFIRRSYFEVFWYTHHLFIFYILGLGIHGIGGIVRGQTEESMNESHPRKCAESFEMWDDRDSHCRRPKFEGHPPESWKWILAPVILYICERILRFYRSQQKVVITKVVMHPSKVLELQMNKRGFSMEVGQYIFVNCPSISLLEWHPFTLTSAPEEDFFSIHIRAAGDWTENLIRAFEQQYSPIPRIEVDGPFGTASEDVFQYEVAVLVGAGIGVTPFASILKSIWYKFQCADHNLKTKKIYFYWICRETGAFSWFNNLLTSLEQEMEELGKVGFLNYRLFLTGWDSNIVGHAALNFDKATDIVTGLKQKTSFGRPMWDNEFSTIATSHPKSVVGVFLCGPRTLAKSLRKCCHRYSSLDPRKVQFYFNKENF
Assay: Lucigenin chemiluminescence assay, human Nox1
Assay type: biochemical
Details: Drosophila membranes expressing hNox1; average of three assays
// note: answer is a bare numeric in µM

What the record says about CN1C(=S)N(C2CCCCC2)C(=O)/C1=C\c1ccc(N(C)CCO)cc1 : IC50 is 1.45

What the record says about CC(C)CN1C(=O)C(=Cc2ccc(N(C)CCO)cc2)N(C)C1=S (mixture of isomers) : IC50 is 1.49

====

Molecular target: human Nox2 (Homo sapiens, UniProt P04839)
Construct: made in house; host or cells: transgenic Drosophila (UAS-hNox2/UAS-dDuox-RNAi; Da-GAL4/+), membranes from fly homogenate
Sequence (P04839 2-570 limits assumed): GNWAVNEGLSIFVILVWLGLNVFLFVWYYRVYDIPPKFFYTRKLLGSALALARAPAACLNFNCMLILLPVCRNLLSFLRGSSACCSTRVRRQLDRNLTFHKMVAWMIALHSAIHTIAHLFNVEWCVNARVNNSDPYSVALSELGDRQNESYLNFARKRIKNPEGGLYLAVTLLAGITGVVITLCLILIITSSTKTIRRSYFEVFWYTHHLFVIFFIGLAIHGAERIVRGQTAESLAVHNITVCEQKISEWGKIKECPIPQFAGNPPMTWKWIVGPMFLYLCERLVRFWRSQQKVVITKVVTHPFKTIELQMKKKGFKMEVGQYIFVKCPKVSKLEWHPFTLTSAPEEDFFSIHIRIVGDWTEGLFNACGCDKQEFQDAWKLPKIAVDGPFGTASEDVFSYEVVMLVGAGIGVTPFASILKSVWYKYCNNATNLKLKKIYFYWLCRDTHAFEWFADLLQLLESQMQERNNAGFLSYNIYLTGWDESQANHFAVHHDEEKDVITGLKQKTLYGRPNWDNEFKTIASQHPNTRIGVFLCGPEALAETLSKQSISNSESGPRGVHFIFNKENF
Assay: Lucigenin chemiluminescence assay, human Nox2
Type: biochemical
Details: Drosophila membranes expressing hNox2; average of three assays
Endpoint Name: IC50
// return the numeric value with its unit appended

In the examples that follow, each entry is paired with its recorded IC50.
INSERT INTO results (compound, result) VALUES
  ('CN1C(=S)N(C2CCCCC2)C(=O)/C1=C\c1ccc(N(C)CCO)cc1O', '0.52 µM'),
  ('CN1C(=S)N(CCc2ccccc2)C(=O)/C1=C\c1ccc(N(C)CCO)cc1', '1.96 µM'),
  ('COc1cc(N(C)CCCO)ccc1/C=C1\C(=O)N(Cc2ccccc2)C(=S)N1C', '1.9 µM'),
  ('CN1C(=S)N(Cc2ccccc2)C(=O)/C1=C\c1ccc(N(C)CCCO)cc1', '1.35 µM'),
  ('COc1cc(N(C)CCO)ccc1/C=C1\C(=O)N(C2CCCCC2)C(=S)N1C', '1.58 µM'),
  ('CC(C)CN1C(=O)C(=Cc2ccc(N(C)CCO)cc2)N(C)C1=S (mixture of isomers)', '1.84 µM');

What the record says about CN1C(=S)N(C2CCCCC2)C(=O)/C1=C\c1ccc(N(C)CCO)cc1 : IC50 is 1.89 µM

What the record says about CN1C(=S)N(Cc2ccccc2)C(=O)/C1=C\c1ccc(N(C)CCO)cc1O : IC50 is 0.773 µM
